- measurement.notes: Plasma pharmacokinetic study
- Assay type: in vivo, CD-1 mice
- test.settings: male, CD-1, mouse, plasma; SC 40 mg/kg
measured.parameter: Tmax (h)
Provide only the numeric value, understood in h.

Ask | Look up Tmax of CC(C)=CCOc1cc(OCCCNC(=N)N)cc2oc3cc(OCCCNC(=N)N)ccc3c(=O)c12 and report it.
Reply | 1

###

- measurement.notes: CCK-8 cytotoxicity assay
- Format: cell-based
- test.settings: mouse, NCTC clone 929 fibroblast cells, 25 μg/ml, read-out: %Viable cells NCTC clone 929 cells
Entries and their viability at 24 h, 25 μg/ml
Provide only the numeric value, understood in %.

Solved entries (count: 2):
| chem.smiles | viability at 24 h, 25 μg/ml (%) |
| --- | --- |
| CC(C)=CCOc1cc(OCCCCCCNC(=N)N)cc2oc3cc(OCCCCCCNC(=N)N)ccc3c(=O)c12 | 4.87 |
| CC(C)=CCOc1cc(OCCCNC(=N)N)cc2oc3cc(OCCCNC(=N)N)ccc3c(=O)c12 | 78.9 |

Now for a further compound.
Ask | Look up viability at 24 h, 25 μg/ml of CC(C)=CCOc1cc(OCCCCNC(=N)N)cc2oc3cc(OCCCCNC(=N)N)ccc3c(=O)c12 and report it.
Reply | 40.3
